Origin of values: patent US10030027B2

# TARGET: sGC α1/β1 heterodimer (Homo sapiens (Human), UniProt Q02108+Q02153)
# Sequence (Q02108 whole entry): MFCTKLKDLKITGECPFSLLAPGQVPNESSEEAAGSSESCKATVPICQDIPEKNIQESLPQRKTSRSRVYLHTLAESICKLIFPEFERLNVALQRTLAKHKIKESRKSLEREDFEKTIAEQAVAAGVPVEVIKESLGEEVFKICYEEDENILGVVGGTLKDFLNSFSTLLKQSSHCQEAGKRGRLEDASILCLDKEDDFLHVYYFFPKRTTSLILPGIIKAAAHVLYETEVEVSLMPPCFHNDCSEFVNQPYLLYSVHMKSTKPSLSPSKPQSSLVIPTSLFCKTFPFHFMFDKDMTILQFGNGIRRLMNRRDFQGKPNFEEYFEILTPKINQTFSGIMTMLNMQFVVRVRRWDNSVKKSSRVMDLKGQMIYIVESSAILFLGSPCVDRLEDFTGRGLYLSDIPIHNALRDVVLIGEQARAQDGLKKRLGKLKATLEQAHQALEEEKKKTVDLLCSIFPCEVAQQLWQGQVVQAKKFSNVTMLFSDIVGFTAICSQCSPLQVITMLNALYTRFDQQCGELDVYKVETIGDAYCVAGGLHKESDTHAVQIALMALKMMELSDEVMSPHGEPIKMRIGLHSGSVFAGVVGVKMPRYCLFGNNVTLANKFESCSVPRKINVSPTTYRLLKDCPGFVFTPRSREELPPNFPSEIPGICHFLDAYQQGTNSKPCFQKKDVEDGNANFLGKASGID
# Sequence (Q02153 whole entry): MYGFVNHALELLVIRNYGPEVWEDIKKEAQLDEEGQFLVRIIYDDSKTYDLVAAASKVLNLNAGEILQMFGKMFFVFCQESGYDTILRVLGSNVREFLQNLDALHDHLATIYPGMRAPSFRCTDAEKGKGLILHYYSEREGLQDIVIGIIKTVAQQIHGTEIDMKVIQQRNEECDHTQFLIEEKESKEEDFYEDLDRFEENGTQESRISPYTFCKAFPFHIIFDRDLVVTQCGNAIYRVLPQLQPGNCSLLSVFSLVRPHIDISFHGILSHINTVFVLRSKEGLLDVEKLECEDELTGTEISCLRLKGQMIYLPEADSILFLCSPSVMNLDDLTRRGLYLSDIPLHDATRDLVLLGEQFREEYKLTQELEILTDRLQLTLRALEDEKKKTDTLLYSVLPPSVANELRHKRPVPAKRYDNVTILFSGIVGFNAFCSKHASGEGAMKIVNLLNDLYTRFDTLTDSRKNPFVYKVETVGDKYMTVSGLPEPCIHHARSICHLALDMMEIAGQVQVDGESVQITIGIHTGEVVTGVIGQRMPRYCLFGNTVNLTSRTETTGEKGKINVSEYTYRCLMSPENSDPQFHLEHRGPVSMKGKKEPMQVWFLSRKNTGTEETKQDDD
# ASSAY: Cell-based sGC functional assay (cyclic GMP assay for sGC activator: CASA assay)
# TEST_CONTEXT: CHO-K1, activity expressed as percentage of compound A (standard); CHO-K1/sGC cells; read-out: % Activation
ASSAY_READOUT: Emax (%)

- MOLECULE: "CC(C)(Cc1nc(C2(C)C(=O)Nc3nc(-c4nn(Cc5ccccc5F)c5cc(Cl)ccc45)nc(N)c32)cs1)C(=O)O (stereo not drawn) [Example 142B]"
  Emax, %: 109
- MOLECULE: "CC(C)(Cc1coc(C2(C)C(=O)Nc3nc(-c4nn(CCC(F)(F)C(F)(F)F)c5cc(Cl)ccc45)nc(N)c32)n1)C(=O)O (stereo not drawn)"
  Emax, %: 111
- MOLECULE: "Cc1cccc(Cn2nc(-c3nc(N)c4c(n3)NC(=O)C4(C)c3cnn(CC(C)(C)C(=O)O)c3)c3ccc(F)cc32)c1F (stereo not drawn) [Example 211A]"
  Emax, %: 96.2
- MOLECULE: "C[C@@]1(c2ccc(CCC(=O)O)cc2)C(=O)Nc2nc(-c3nn(CCCC(F)(F)F)c4ncccc34)nc(N)c21 [Example 15B]"
  Emax, %: 95
- MOLECULE: "CC1(c2cn(CCC(=O)O)nn2)C(=O)Nc2nc(-c3nn(CCC(F)(F)C(F)(F)F)c4cc(Cl)ccc34)nc(N)c21 (stereo not drawn) [Example 29B]"
  Emax, %: 82
- MOLECULE: "CC1(c2nc(CCC(F)(F)C(=O)O)co2)C(=O)Nc2nc(-c3nn(Cc4ccccc4F)c4cc(Cl)ccc34)nc(N)c21 (stereo not drawn) [Example 127A]"
  Emax, %: 117

----------
# TARGET: sGC α1/β1 heterodimer (Homo sapiens (Human), UniProt Q02108+Q02153)
# ASSAY: Cell-based sGC functional assay (cyclic GMP assay for sGC activator: CASA assay)
# TEST_CONTEXT: inflection point, 4P fit; CHO-K1/sGC cells; read-out: IP
pEC50: −log10 of the molar value.
ASSAY_READOUT: pEC50

[P] CC(C)(Cc1coc(C2(C)C(=O)Nc3nc(-c4nn(Cc5ccccc5F)c5cc(F)ccc45)nc(N)c32)n1)C(=O)O (centres unmarked) [Example 63A]
[Q] CC(C)(Cc1coc(C2(C)C(=O)Nc3nc(-c4nn(Cc5cccc(F)c5F)c5cc(F)ccc45)nc(N)c32)n1)C(=O)O (centres unmarked) [Example 200A]
[R] Cc1cccc(Cn2nc(-c3nc(N)c4c(n3)NC(=O)C4(C)c3nc(CC(C)(C)C(=O)O)co3)c3ccccc32)c1 (centres unmarked) [Example 226A]
In: Order the entries above from lowest to highest pEC50. Please, when replying, give the labels in the order that was requested.
Out: R, Q, P
(R: 6.45, Q: 6.66, P: 6.98)

[1] C[C@@]1(c2ccc(CCC(=O)O)cc2)C(=O)Nc2nc(-c3nn(Cc4ccccc4F)c4ncc(F)cc34)nc(N)c21 [Example 23B]
[2] CC(C)(Cc1csc([C@]2(C)C(=O)Nc3nc(-c4nn(CCC(F)(F)C(F)(F)F)c5ncccc45)nc(N)c32)n1)C(=O)O (single isomer, unassigned) [Example 77B]
In: For the pair 1 and 2 , which member has the lower pEC50 number? Give the label of your selection.
Out: 2
(2: 6.31, 1: 6.69)

[1] CC1(c2ccc(/C=C/C(=O)O)cc2)C(=O)Nc2nc(-c3nn(CCC(F)(F)C(F)(F)F)c4cc(Cl)ccc34)nc(N)c21 (centres unmarked) [Example 157A]
[2] CC1(c2ccc(CCC(=O)O)c(Br)c2)C(=O)Nc2nc(-c3nn(CCC(F)(F)C(F)(F)F)c4cc(Cl)ccc34)nc(N)c21 (centres unmarked)
In: For the pair 1 and 2 , which member has the lower pEC50 number? Give the label of your selection.
Out: 2
(2: 6.53, 1: 6.73)

----------
# TARGET: sGC α1/β1 heterodimer (Homo sapiens (Human), UniProt Q02108+Q02153)
# ASSAY: Cell-based sGC functional assay (cyclic GMP assay for sGC activator: CASA assay)
# TEST_CONTEXT: CHO-K1, activity expressed as percentage of compound A (standard); CHO-K1/sGC cells; read-out: % Activation
ASSAY_READOUT: Emax (%)

Would you please look over these solved cases?
- COMPOUND: "C[C@@]1(c2ccc(CCc3nn[nH]n3)cc2)C(=O)Nc2nc(-c3nn(Cc4ccccc4F)c4ccccc34)nc(N)c21 [Example 242B]"
  TARGET: "sGC α1/β1 heterodimer (Homo sapiens (Human), UniProt Q02108+Q02153)"
  ASSAY_READOUT: "Emax"
  QUANTITATIVE_RESULT: 107
- COMPOUND: "CC(C)(CCc1coc(C2(C)C(=O)Nc3nc(-c4nn(Cc5ccccc5F)c5cc(Cl)ccc45)nc(N)c32)n1)C(=O)O (centres unmarked) [Example 167B]"
  TARGET: "sGC α1/β1 heterodimer (Homo sapiens (Human), UniProt Q02108+Q02153)"
  ASSAY_READOUT: "Emax"
  QUANTITATIVE_RESULT: 107
- COMPOUND: "CC1(c2ccc(OCC(=O)O)cc2)C(=O)Nc2nc(-c3nn(Cc4ccccc4F)c4cc(Cl)ccc34)nc(N)c21 (centres unmarked) [Example 260A]"
  TARGET: "sGC α1/β1 heterodimer (Homo sapiens (Human), UniProt Q02108+Q02153)"
  ASSAY_READOUT: "Emax"
  QUANTITATIVE_RESULT: 136
- COMPOUND: "CC1(c2ccc(/C=C/C(=O)O)cc2)C(=O)Nc2nc(-c3nn(Cc4ccccc4F)c4ncccc34)nc(N)c21 (centres unmarked) [Example 217A]"
  TARGET: "sGC α1/β1 heterodimer (Homo sapiens (Human), UniProt Q02108+Q02153)"
  ASSAY_READOUT: "Emax"
  QUANTITATIVE_RESULT: 124

[A] CC1(c2nc(CC(=O)O)co2)C(=O)Nc2nc(-c3nn(Cc4ccccc4F)c4ccccc34)nc(N)c21 (centres unmarked) [Example 203A]
[B] C[C@@]1(c2ccc(CCC(=O)O)cc2)C(=O)Nc2nc(-c3nn(Cc4ccccc4F)c4cc(Cl)c(O)cc34)nc(N)c21 [Example 110B]
In: // compare measured Emax, left A , right B , return larger Give the label of your selection.
Out: A

[P] Cc1cccc(Cn2nc(-c3nc(N)c4c(n3)NC(=O)[C@@]4(C)c3ccc(CCC(=O)O)cc3)c3ccccc32)c1 [Example 225B]
[Q] C[C@@]1(c2ccc(CCC(=O)O)cc2)C(=O)Nc2nc(-c3nn(CCC(F)(F)C(F)(F)F)c4ncccc34)nc(N)c21 (single isomer, unassigned)
In: For the pair P and Q , which member has the lower Emax number? Give the label of your selection.
Out: Q

----------
# TARGET: sGC α1/β1 heterodimer (Homo sapiens (Human), UniProt Q02108+Q02153)
# ASSAY: Cell-based sGC functional assay (cyclic GMP assay for sGC activator: CASA assay)
# TEST_CONTEXT: inflection point, 4P fit; CHO-K1/sGC cells; read-out: IP
ASSAY_READOUT: EC50 (nM)

Would you please look over these solved cases?
- COMPOUND: "Cc1cc(C2(C)C(=O)Nc3nc(-c4nn(CCC(F)(F)C(F)(F)F)c5cc(Cl)ccc45)nc(N)c32)ccc1CCC(=O)O (stereo not shown) [Example 121B]"
  QUANTITATIVE_RESULT: 238
- COMPOUND: "CC(C)(Cc1ccc(C2(C)C(=O)Nc3nc(-c4nn(CCCC(F)(F)F)c5ncccc45)nc(N)c32)cc1)C(=O)O (stereo not shown) [Example 16B]"
  QUANTITATIVE_RESULT: 1470

[A] CC(C)(Cc1coc(C2(C)C(=O)Nc3nc(-c4nn(CC5CCCCC5)c5cc(Cl)ccc45)nc(N)c32)n1)C(=O)O (stereo not shown) [Example 159A]
[B] CC(C)(Cc1csc([C@]2(C)C(=O)Nc3nc(-c4nn(CC5CCCCO5)c5cc(F)ccc45)nc(N)c32)n1)C(=O)O (single isomer, unassigned) [Example 133AA]
In: // compare measured EC50, left A , right B , return larger Give the label of your selection.
Out: B
(B: 657 nM, A: 221 nM)

[a] CC(C)(Cc1csc([C@]2(C)C(=O)Nc3nc(-c4nn(CC5CCCCO5)c5ccccc45)nc(N)c32)n1)C(=O)O (single isomer, unassigned) [Example 229AB]
[b] CC(C)(Cc1coc(C2(C)C(=O)Nc3nc(-c4nn(CC5CCCCO5)c5cc(F)ccc45)nc(N)c32)n1)C(=O)O (single isomer, unassigned) [Example 134AA]
In: For the pair a and b , which member has the lower EC50 number? Give the label of your selection.
Out: a
